test system: PD1-ss+10aa/Gaussia Luciferase; experiment: Dox-Induced PD1-ss-Gluc Assay; type: cell-based; details: Flp-In 293 T-REx cells, 24 hours with doxycycline; Table 1; read-out: 24 hr Dox Inducible PD1ssGluc 293FRT/TO: Mean IC50
MEASUREMENT NAME: IC50 (nM)

In [3]: df
Out[3]:
                                   compound  endpoint_unit  reported_value
0  O=C(Nc1nc(/C=C/c2ncoc2C(F)(F)F)cs1)c1cc(Cl)cn1Cc1ccnc(F)c1 [Compound A8]             nM             129
1  CCOc1cc(C(=O)Nc2nc(/C=C/c3ncn(C4CC4)c3Cl)cs2)n(Cc2ccnc(F)c2)c1 [Compound A17]             nM               9
2  Cc1cnc(F)cc1Cn1cc(OC(F)F)cc1C(=O)Nc1nc(/C=C/c2ncn(C3CC3)c2Cl)cs1 [Compound A24]             nM               8

[I] COc1cc(C(=O)Nc2nc(/C=C/c3ncn(C4CC4)c3Cl)cs2)n(Cc2ccnc(F)c2)c1 [Compound A13]
[II] COc1cc(C(=O)Nc2nc(/C=C/c3ncn(C4CC4)c3Cl)cs2)n(Cc2ccnc(F)c2F)c1 [Compound A20]
[III] COc1cc(C(=O)Nc2nc(/C=C/c3ncn(C(C)C)c3Cl)c(CO)s2)n(Cc2ccnc(F)c2F)c1 [Compound A21]
[IV] CN[C@H]1CC[C@@H](/C=C/c2csc(NC(=O)c3cccn3Cc3ccncc3)n2)CC1 [Compound B11]
Query: Please list the entries, largest IC50 first. Kindly provide the labels arranged according to the requested ordering.
Reply: IV, III, II, I
(IV: 18700 nM, III: 238 nM, II: 31 nM, I: 5 nM)

---

system: IL6R-ss+10aa/Gaussia Luciferase; test: Dox-induced IL-6R-ss-Gluc Assay; type: cell-based; details: Flp-In 293 T-REx cells, 24 hours with doxycycline; Table 1; read-out: 24hr Dox Inducible IL6R(ss + 10)Gluc 293FRT/TO: Mean IC50
pIC50: −log10 of the molar value.
MEASUREMENT NAME: pIC50

In [3]: df
Out[3]:
                                 mol_smiles                   assayed_target  reported_value
0  N#Cc1c(/C=C/c2csc(NC(=O)c3cc(Cl)cn3Cc3ccnc(F)c3)n2)ncn1C1CC1  IL6R-ss+10aa/Gaussia Luciferase            5.83
1  CC(C)n1cnc(/C=C/c2csc(NC(=O)c3cc(Cl)cn3Cc3ccnc(F)c3)n2)c1C(F)(F)F  IL6R-ss+10aa/Gaussia Luciferase            5.98

[a] N[C@H]1CC[C@H](/C=C/c2csc(NC(=O)c3cccn3Cc3ccncc3)n2)CC1
[b] COc1cc(C(=O)Nc2nc(/C=C/c3ncn(C4CC4)c3Cl)cs2)n(Cc2ccnc(F)c2F)c1
[c] O=C(Nc1nc(/C=C/c2ncn(C3CC3)c2Cl)cs1)c1cc(C(F)(F)F)cn1Cc1ccnc(F)c1
Query: Please list the entries, largest pIC50 first. Kindly provide the labels arranged according to the requested ordering.
Reply: c, b, a
(c: 5.66, b: 5.42, a: 5.00)

[1] O=C(Nc1nc(/C=C/c2ncn(C3CC3)c2Cl)cs1)c1cc(OC(F)F)cn1Cc1ccnc(F)c1
[2] O=C(Nc1nc(/C=C/c2ccc3occc3c2)cs1)c1cccn1Cc1ccnc(F)c1
[3] N[C@H]1CC[C@@H](/C=C/c2csc(NC(=O)c3cccn3Cc3ccncc3)n2)CC1
[4] O=C(Nc1nc(/C=C/c2cn(C(F)(F)F)cn2)cs1)c1cc(Cl)cn1Cc1ccnc(F)c1
Query: Give the ascending ranking of the items by reported pIC50. Kindly provide the labels arranged according to the requested ordering.
Reply: 3, 4, 1, 2
(3: 5.06, 4: 5.33, 1: 5.68, 2: 6.05)

[P] [2H]C([2H])(c1ccnc(F)c1)n1cc(OC(F)F)cc1C(=O)Nc1nc(/C=C/c2ncn(C3CC3)c2Cl)cs1
[Q] O=C(Nc1nc(/C=C/c2ncn(C3CC3)c2Cl)cs1)c1cc(SC(F)(F)F)cn1Cc1ccnc(F)c1
Query: pIC50 comparison. Which is larger, P or Q ? To answer, give the label that identifies your chosen option.
Reply: Q

[P] COc1cc(C(=O)Nc2nc(/C=C/c3ncn(C(C)C)c3Cl)cs2)n(Cc2ccnc(F)c2)c1
[Q] CC(=O)N[C@H]1CC[C@H](/C=C/c2csc(NC(=O)c3cccn3Cc3ccncc3)n2)CC1
Query: pIC50 comparison. Which is larger, P or Q ? To answer, give the label that identifies your chosen option.
Reply: P
(P: 5.49, Q: 4.62)

---

Listed next: entries and their corresponding 24 hr Dox Inducible IL2FLGluc 293FRT/TO: IL2/PD1.
tested on: IL-2-FL/Gaussia Luciferase; assay: Dox Inducible IL2-FL-Gluc Assay; type: cell-based; details: ratio of IC50s IL2/PD1; Table 1
Just the number, please, no unit attached.

Consider the following illustrative entries.
>>> df
                                   molecule  reported_value
0  CC(=O)N[C@H]1CC[C@H](/C=C/c2csc(NC(=O)c3cccn3Cc3ccncc3)n2)CC1 [Compound B17]             1.6
1  N[C@H]1CC[C@@H](/C=C/c2csc(NC(=O)c3cccn3Cc3ccncc3)n2)CC1 [Compound B16]             2.4
2  CC(C)n1cnc(/C=C/c2csc(NC(=O)c3cc(OC(F)F)cn3Cc3ccnc(F)c3)n2)c1Cl [Compound A7]             200
3  CCOc1cc(C(=O)Nc2nc(/C=C/c3ncn(C4CC4)c3Cl)cs2)n(Cc2ccnc(F)c2)c1 [Compound A17]             340
4  O=C(Nc1nc(/C=C/c2ncn(C3CC3)c2Cl)cs1)c1cc(OC(F)F)cn1Cc1ccnc(F)c1 [Compound A15]             490

Now look at this one.
Query: Check the records and state 24 hr Dox Inducible IL2FLGluc 293FRT/TO: IL2/PD1 for O=C(Nc1nc(/C=C/c2cccc(F)c2)cs1)c1cccn1Cc1ccnc(F)c1 [Compound B28]
Reply: 6.1

---

Listed next: entries and their corresponding 24 hr Dox Inducible IL2FLGluc 293FRT/TO: IL2/PD1.
Tested on: IL-2-FL/Gaussia Luciferase
Test: Dox Inducible IL2-FL-Gluc Assay
Format: cell-based
Conditions: ratio of IC50s IL2/PD1; Table 1
Source text: Flp-In 293 T-REx™ cells were transfected with pcDNA™5/FRT/TO plasmid inserted with cDNA encoding Gaussia Luciferase fused to the 3′ end of cDNA encoding full length IL-2 (amino acids 1-153). Transfected cells were selected for resistance to the selectable markers Hygromycin and Blasticidin to create a stable cell line that contained the IL-2-FL/Gaussia Luciferase cDNA insert whose expression was regulated under the T-REx™ system. […]
Just the number, please, no unit attached.

In [3]: df
Out[3]:
                                 mol_smiles  reported_value
0  O=C(Nc1nc(/C=C/c2cn(C(F)(F)F)cn2)cs1)c1cc(Cl)cn1Cc1ccnc(F)c1               7

Query: Give 24 hr Dox Inducible IL2FLGluc 293FRT/TO: IL2/PD1 only, for O=C(Nc1nc(/C=C/C2CCC(F)(F)CC2)cs1)c1cccn1Cc1ccnc(F)c1 , using IL-2-FL/Gaussia Luciferase data.
Reply: 12.0

---

System: IL6R-ss+10aa/Gaussia Luciferase
Assay: Dox-induced IL-6R-ss-Gluc Assay
Assay type: cell-based
Settings: Flp-In 293 T-REx cells, 24 hours with doxycycline; Table 1; read-out: 24hr Dox Inducible IL6R(ss + 10)Gluc 293FRT/TO: Mean IC50
Description: Flp-In 293 T-REx™ cells were transfected with pcDNATM5/FRT/TO plasmid inserted with cDNA encoding Gaussia Luciferase fused to the 3′ end of cDNA encoding IL6R signal sequence plus 10 amino acids (N-[…]-C). Transfected cells were selected for resistance to the selectable markers Hygromycin and Blasticidin to create a stable cell line that contained the IL6R-ss+10aa/Gaussia Luciferase cDNA insert whose expression was regulated under the T-REx™ system. […]
pIC50: −log10 of the molar value.
MEASUREMENT NAME: pIC50

In [3]: df
Out[3]:
                                 mol_smiles  reported_value
0  [2H]C([2H])(c1ccnc(F)c1)n1cc(Cl)cc1C(=O)Nc1nc(/C=C/c2ncn(C3CC3)c2Cl)cs1            5.92
1  O=C(Nc1nc(/C=C/C2CCC(F)(F)CC2)cs1)c1cccn1Cc1ccnc(F)c1            6.04

[A] Cc1cnc(F)cc1Cn1cc(OC(F)F)cc1C(=O)Nc1nc(/C=C/c2ncn(C3CC3)c2Cl)cs1
[B] CC(C)n1cnc(/C=C/c2csc(NC(=O)c3cccn3Cc3ccnc(F)c3)n2)c1C#N
Query: pIC50 comparison. Which is larger, A or B ? To answer, give the label that identifies your chosen option.
Reply: B
